Data origin: PubChem BioAssay (NCI)

# Tested on: SK-OV-3 ovarian
# method_summary: NCI-60 one-dose screen, 48 h (100 = growth as untreated, 0 = no growth, -100 = all killed)
# protocol_conditions: 10 µM unless noted
This is part of a sample that, as a whole, favours compounds with a hit. Of some 83,000 tested, about 20% had one in any assay.
measurement_name: growth (%)

>>> recorded_measurement("CC[C@H](CC[C@@H](C)[C@H]1CC[C@H]2[C@@H]3CC=C4C[C@@H](OCCc5nn[nH]n5)CC[C@]4(C)[C@H]3CC[C@]12C)C(C)C")
96.8
>>> recorded_measurement("CCOC(=O)c1c(O)cc(-c2ccccc2)cc1-c1sc(N(C)Cc2ccccc2)nc1Cl")
95.7
>>> recorded_measurement("CCc1nc(C)cn1C(=O)OCc1nc2nc(Cl)nc(N3CCOCC3)c2[nH]1")
70
>>> recorded_measurement("COc1cc(NCCCN(CC(C)C)C2CCCC2)c2ncccc2c1")
84.6
>>> recorded_measurement("c1ccc(-c2nn(-c3ccccc3)[n+](-c3cccc4ccccc34)n2)cc1")
66.3
>>> recorded_measurement("COc1cc(OC)cc(C2C3=C(COC3=O)Nc3cc(OC)ccc32)c1 (centres undefined)")
-3.6
>>> recorded_measurement("CC(=O)O[C@]1(C(C)=O)CC[C@H]2[C@@H]3C=C(Cl)C4=CC(=O)CC[C@]4(C)[C@H]3CC[C@@]21C")
107
>>> recorded_measurement("CCCCCOc1ccc(/C=N/Nc2cc(C)nc3ccc(Br)cc23)cc1")
102
>>> recorded_measurement("COc1cc2nc(-c3ccc(C(F)(F)F)cc3)cc(OCCCN3CCCCC3)c2cc1OC")
77.8
>>> recorded_measurement("COc1ccc(C(=O)c2cc3c(N)c(C(=O)Nc4cccc(Cl)c4)sc3nc2C)cc1")
44
>>> recorded_measurement("CC(=O)N1c2ccccc2NC2=C(C(=O)N(Cc3ccccc3)C2(C)C)C1c1ccco1 (centres undefined)")
22.7
>>> recorded_measurement("COc1cc(C(=O)c2cnc(-c3ccc4cc[nH]c4c3)[nH]2)cc(OC)c1OC")
23.5
>>> recorded_measurement("CS(=O)(=O)Nc1cc(-c2ccc3ncnc(Nc4ccc5[nH]ncc5c4)c3c2)cnc1Cl")
76
>>> recorded_measurement("O=C(OC(OC(=O)c1cc(Cl)cc(Cl)c1)c1cccc2ccccc12)c1ccccc1 (centres undefined)")
101
>>> recorded_measurement("Cc1cccc(Oc2ccc(Nc3ncnc4ccc(NC(=O)CN(C)C)cc34)cc2Cl)c1")
16
>>> recorded_measurement("Cc1[nH]c(C(=O)Nc2ccccc2OCc2cccc(C(=O)NCCN)c2)c(Cl)c1Cl")
108
>>> recorded_measurement("CCCCCN1C=C/C(=C\\C(=O)N(C)c2cccc3ccccc23)c2ccccc21")
99.6
>>> recorded_measurement("CCNNC(=O)[C@@H]1[C@H](c2cc(OC)c(OC)c(OC)c2)c2cc3c(cc2[C@H](O)[C@H]1CO)OCO3")
1.47
>>> recorded_measurement("COc1ccc(Cn2nc3c(c2-c2cc(OC)c(OC)c(OC)c2)-c2oncc2CC3)cc1")
94.7
